# test system: human CCR8 (human, UniProt P51685 1-355)
# test name: cell-based or functional assay
value type: hCCL1 (100 nM) residual response, Protocol #2, mAb 10 µg/mL (%)
Numeric answer only, unit % assumed.

Form: binder = 3-13 (antibody, V domains shown) VH: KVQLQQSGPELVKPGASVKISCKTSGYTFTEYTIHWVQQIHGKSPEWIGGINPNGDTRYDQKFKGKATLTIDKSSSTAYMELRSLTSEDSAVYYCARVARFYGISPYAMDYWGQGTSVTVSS VL: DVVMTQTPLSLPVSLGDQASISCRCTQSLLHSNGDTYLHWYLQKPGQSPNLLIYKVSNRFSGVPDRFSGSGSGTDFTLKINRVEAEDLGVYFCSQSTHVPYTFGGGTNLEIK ; hCCL1 (100 nM) residual response, Protocol #2, mAb 10 µg/mL = 100

For 3-49 (antibody, V domains shown) VH: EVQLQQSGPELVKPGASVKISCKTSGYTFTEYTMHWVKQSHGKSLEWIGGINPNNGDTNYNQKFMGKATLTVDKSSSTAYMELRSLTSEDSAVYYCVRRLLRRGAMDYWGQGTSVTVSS VL: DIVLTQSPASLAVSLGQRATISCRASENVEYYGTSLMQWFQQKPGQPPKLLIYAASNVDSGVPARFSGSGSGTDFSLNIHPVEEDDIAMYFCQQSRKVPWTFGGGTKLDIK the binder record lists hCCL1 (100 nM) residual response, Protocol #2, mAb 10 µg/mL as 95

Given item 3-82 (antibody, human IgG1, kappa, V domains shown, humanized, human IgG1 kappa) VH: QVQLVESGGGVVQPGRSLRLSCAASGFTFSNYRMHWVRQAPGKGLEWIAVIKVKSDNYGANYADSVKGRFTISRDNSKNTLYLQMNSLRAEDTAVYYCSSPTYPGSSGFAYWGQGTLVTVSS VL: DIQMTQSPSSLSASVGDRVTITCRASQDISNYLNWYQQKPDGTVKLLIYYTSRLHTGVPSRFSGSGSGTDYTLTISNLQQEDIATYFCQQGNKFPPTFGGGTKVEINR , the value recorded as its hCCL1 (100 nM) residual response, Protocol #2, mAb 10 µg/mL is 60

Lookup result for 3-11 (antibody, V domains shown) VH: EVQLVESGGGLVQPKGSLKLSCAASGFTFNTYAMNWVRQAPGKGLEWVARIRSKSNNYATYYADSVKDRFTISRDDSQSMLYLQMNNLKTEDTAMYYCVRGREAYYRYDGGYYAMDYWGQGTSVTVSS VL: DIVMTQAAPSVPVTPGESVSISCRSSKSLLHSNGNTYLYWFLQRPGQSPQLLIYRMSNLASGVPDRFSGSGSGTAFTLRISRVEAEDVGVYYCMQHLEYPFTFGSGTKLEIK ; measured hCCL1 (100 nM) residual response, Protocol #2, mAb 10 µg/mL: 19

Just so you know, measured hCCL1 (100 nM) residual response, Protocol #2, mAb 10 µg/mL for 3-32 (antibody, V domains shown) VH: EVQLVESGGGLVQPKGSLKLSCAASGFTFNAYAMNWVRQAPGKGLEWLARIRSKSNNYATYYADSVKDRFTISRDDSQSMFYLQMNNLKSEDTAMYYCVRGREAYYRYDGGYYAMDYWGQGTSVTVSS VL: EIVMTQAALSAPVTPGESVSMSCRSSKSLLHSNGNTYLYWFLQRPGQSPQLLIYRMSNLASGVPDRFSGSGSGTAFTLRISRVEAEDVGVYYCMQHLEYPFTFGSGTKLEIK came out at 46

Short answer for 3-21 (antibody, V domains shown) VH: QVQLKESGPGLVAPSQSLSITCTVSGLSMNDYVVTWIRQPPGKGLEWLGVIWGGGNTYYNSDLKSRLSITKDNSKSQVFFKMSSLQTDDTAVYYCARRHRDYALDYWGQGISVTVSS VL: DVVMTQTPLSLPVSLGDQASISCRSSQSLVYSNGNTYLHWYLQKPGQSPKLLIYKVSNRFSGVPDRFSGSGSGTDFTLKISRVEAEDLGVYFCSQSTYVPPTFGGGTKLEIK : hCCL1 (100 nM) residual response, Protocol #2, mAb 10 µg/mL was 97

// recorded hCCL1 (100 nM) residual response, Protocol #2, mAb 10 µg/mL for 3-45 (antibody, V domains shown) VH: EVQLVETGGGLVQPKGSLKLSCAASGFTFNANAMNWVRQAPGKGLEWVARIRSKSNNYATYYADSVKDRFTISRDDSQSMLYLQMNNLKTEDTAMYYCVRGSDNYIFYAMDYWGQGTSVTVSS VL: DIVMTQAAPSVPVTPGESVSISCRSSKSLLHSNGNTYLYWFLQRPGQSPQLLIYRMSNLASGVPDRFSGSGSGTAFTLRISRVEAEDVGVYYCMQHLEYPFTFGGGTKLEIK : 68

Consider 3-79 (antibody, human IgG1, kappa, V domains shown, humanized, human IgG1 kappa) VH: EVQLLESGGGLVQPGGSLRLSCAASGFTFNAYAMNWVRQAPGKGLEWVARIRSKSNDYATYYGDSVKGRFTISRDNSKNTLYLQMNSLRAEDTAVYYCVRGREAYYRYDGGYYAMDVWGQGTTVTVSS VL: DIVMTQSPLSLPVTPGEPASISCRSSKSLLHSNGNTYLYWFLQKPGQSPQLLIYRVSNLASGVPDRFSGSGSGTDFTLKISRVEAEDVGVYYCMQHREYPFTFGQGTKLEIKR . Its measured hCCL1 (100 nM) residual response, Protocol #2, mAb 10 µg/mL is 31

Item: 3-29 (antibody, V domains shown) VH: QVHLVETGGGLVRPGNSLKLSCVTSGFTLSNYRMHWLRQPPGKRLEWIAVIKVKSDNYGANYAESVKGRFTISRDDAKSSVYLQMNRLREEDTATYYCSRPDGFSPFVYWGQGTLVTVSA VL: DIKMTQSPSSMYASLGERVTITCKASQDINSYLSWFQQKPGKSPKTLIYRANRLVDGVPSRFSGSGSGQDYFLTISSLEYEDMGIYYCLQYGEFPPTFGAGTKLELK | hCCL1 (100 nM) residual response, Protocol #2, mAb 10 µg/mL: 24
